# test system: P. falciparum apicoplast DNA polymerase (Pf-apPOL) (Plasmodium falciparum)
# Sequence (Q8ILY1 entry or part of it): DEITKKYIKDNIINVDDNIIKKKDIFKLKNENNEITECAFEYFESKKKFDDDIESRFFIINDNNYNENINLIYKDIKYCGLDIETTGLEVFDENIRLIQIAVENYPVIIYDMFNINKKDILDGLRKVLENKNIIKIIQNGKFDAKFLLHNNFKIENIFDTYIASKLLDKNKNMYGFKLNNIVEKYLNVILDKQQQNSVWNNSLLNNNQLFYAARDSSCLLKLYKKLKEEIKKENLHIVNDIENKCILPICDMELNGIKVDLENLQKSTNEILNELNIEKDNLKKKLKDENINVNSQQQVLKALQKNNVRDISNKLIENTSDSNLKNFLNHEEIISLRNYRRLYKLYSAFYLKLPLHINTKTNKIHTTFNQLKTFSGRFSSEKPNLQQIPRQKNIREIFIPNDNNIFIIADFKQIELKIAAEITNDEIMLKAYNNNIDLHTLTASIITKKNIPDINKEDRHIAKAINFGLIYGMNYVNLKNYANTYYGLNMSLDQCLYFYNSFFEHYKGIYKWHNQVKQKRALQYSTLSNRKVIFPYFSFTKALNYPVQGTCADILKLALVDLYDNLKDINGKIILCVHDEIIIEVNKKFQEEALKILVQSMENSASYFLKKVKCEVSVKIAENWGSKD
# procedure summary: Fluorescence-based high-throughput DNA polymerase assay (molecular beacon), primary screen and dose-response
# Assay type: biochemical
# run parameters: DRC-1; 90'; concentration 10

{"columns": ["molecule", "% inhibition Apol 90', %"],
 "data": [
  ["CC(=O)Nc1cc(C(=O)NC(C)C)c2ccc(C)nc2c1", 13.9494],
  ["O=C1CCCC2=C1C(c1ccccn1)C1=C(CCCC1=O)O2", 28.061],
  ["COCC(=O)Nc1c(-c2cccc(F)c2)nc2cc(C)ccn12", 35.5455],
  ["CCCCC(=O)N1CCc2c(nc3cc(-c4ccccc4Cl)[nH]n3c2=O)C1", 36.7881],
  ["Nc1c(S(=O)(=O)O)cc(Nc2ccccc2)c2c1C(=O)c1ccccc1C2=O", 36.638],
  ["CN(C)C1C(c2ccccc2)=C(c2ccccc2)SC(c2ccccc2)C1[N+](=O)[O-] (centres unmarked)", 44.0197],
  ["O=c1cc(-c2ccccc2)oc2c(O)c(O)ccc12", 11.2996],
  ["CCOc1ccccc1-c1nc(-c2ccc(=O)[nH]c2)no1 [Molecule 76, CCOc1ccccc1c1onc(n1)c1ccc(=O)[nH]c1]", 9.377],
  ["Oc1ccc(N=Nc2ccccc2)c(O)c1", 6.956],
  ["O=C(Nc1cccc(C(=O)Nc2ccc(S(=O)(=O)[O-])c3cc(S(=O)(=O)[O-])cc(S(=O)(=O)[O-])c23)c1)Nc1cccc(C(=O)Nc2ccc(S(=O)(=O)[O-])c3cc(S(=O)(=O)[O-])cc(S(=O)(=O)[O-])c23)c1.[Na+].[Na+].[Na+].[Na+].[Na+].[Na+]", 22.6686],
  ["O=C1N=C(Nc2cccc(Cl)c2Cl)S/C1=C\\c1ccco1 [Molecule 3, O=C1N=C(S/C/1=C\\c1ccco1)Nc1cccc(c1Cl)Cl]", 64.2373],
  ["O=C(NNC(=O)c1ccc(Cl)cc1)C(=O)NNC(=O)c1ccc(Cl)cc1", 48.8169],
  ["COc1ccc(-c2cc3nc4c(c(=O)n3[nH]2)CCN(C(=O)CCc2ccccc2)C4)cc1", 49],
  ["NC(=O)c1cc[n+](CC2=C(C(=O)[O-])N3C(=O)[C@@H](NC(=O)[C@@H](c4ccccc4)S(=O)(=O)[O-])[C@H]3SC2)cc1.[Na+]", 53.7945]
]}

* * *

# test system: P. falciparum apicoplast DNA polymerase (Pf-apPOL) (Plasmodium falciparum)
# procedure summary: Fluorescence-based high-throughput DNA polymerase assay (molecular beacon), primary screen and dose-response
# Assay type: biochemical
# run parameters: DRC-2; read at 5'; concentration 80
measured parameter: % inhibition Apo pol 5' 80 (%)

{"columns": ["molecule", "test system", "recorded measurement"],
 "data": [
  ["Cc1nc(C)c2c(n1)N(CC1CCCCC1)C(=O)CC2 [KU0218606]", "P. falciparum apicoplast DNA polymerase (Pf-apPOL) (Plasmodium falciparum)", 27],
  ["COc1ccc(/C=C/c2cc(C(=O)O)c3ccccc3n2)cc1 [Molecule 5, COc1ccc(cc1)/C=C/c1nc2ccccc2c(c1)C(=O)O]", "P. falciparum apicoplast DNA polymerase (Pf-apPOL) (Plasmodium falciparum)", 14],
  ["COc1ccc(C2CC(c3ccc(Cl)cc3Cl)Nc3nc(N)nn32)cc1OC (centres unmarked) [Molecule 43]", "P. falciparum apicoplast DNA polymerase (Pf-apPOL) (Plasmodium falciparum)", 38],
  ["C#CC(C=CC)OC(=O)c1ccccc1C(=O)O (centres unmarked) [Molecule 61, CC=CC(OC(=O)c1ccccc1C(=O)O)C#C]", "P. falciparum apicoplast DNA polymerase (Pf-apPOL) (Plasmodium falciparum)", 57],
  ["Cn1nc(-c2nc(-c3ccccc3)no2)c2c1CCN(C(=O)Cc1cccs1)C2 [Molecule 58]", "P. falciparum apicoplast DNA polymerase (Pf-apPOL) (Plasmodium falciparum)", 16],
  ["O=C(CCc1csc(NC(=O)Nc2ccccc2)n1)Nc1nc2ccccc2s1 [KU0177354]", "P. falciparum apicoplast DNA polymerase (Pf-apPOL) (Plasmodium falciparum)", 29],
  ["N#Cc1c(O)nc(N2CCCCC2)nc1-c1ccc2c(c1)OCO2 [KU0083146]", "P. falciparum apicoplast DNA polymerase (Pf-apPOL) (Plasmodium falciparum)", 57],
  ["Cc1ccsc1Cn1c(C)ccc1C [Molecule 70, Cc1ccsc1Cn1c(C)ccc1C]", "P. falciparum apicoplast DNA polymerase (Pf-apPOL) (Plasmodium falciparum)", 47]
]}
